Assay: BSK_3C_Vis: BioMAP Diversity Plus: 3C Assay for Morphology Visualization (AID 2283025);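 further: fitted both ways so gain or loss versus DMSO counts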
Conditions: primary human endothelial cells (HUVEC)
Calls of active or inactive are those of the source. How the source made its calls: active means hit-call score of the fitted dose curve at least 0.9, where 1 is the maximum; inactive means score below 0.9.
Mark one answer only. Choices: YES (active), NO (inactive)

Recorded results for 5 compounds are shown here.
>>> class("ClC1=C(Cl)C2(Cl)C3C(Cl)C(Cl)CC3C1(Cl)C2(Cl)Cl (centres undefined)")
"YES"
>>> class("O=P(Oc1ccccc1)(Oc1ccccc1)Oc1ccccc1")
"YES"
>>> class("N#Cc1cc([N+](=O)[O-])ccc1N")
"NO"
>>> class("CSC(C)(C)C=NO")
"NO"
>>> class("CCOP(=S)(OCC)SCn1nnc2ccccc2c1=O")
"NO"

Challenge: Identify the outcome logged in this assay for the compound shown: `c1cc2c3c(cccc3c1)CC2`
Response given: NO

Challenge: Proceed to `N#Cc1c(-c2ccc(Cl)cc2)[nH]c(C(F)(F)F)c1Br`
Response given: YES

Challenge: Proceed to CCOP(=S)(NC(C)C)Oc1ccccc1C(=O)OC(C)C (centres undefined)
Response given: NO

Challenge: Proceed to `Nc1cc2c3c(c1)C(c1ccccc1)=N[C@@H](NC(=O)c1cccnc1)C(=O)N3CC2`
Response given: NO

Challenge: Proceed to `CCCCCCCc1ccc(O)cc1`
Response given: YES

* * *

Read-out: Vascular cell adhesion molecule 1 (VCAM1), VCAM1 (gene 7412)
Assay: BSK_hDFCGF_VCAM1: BioMAP Diversity Plus: hDFCGF Assay for Vascular cell adhesion molecule 1 (VCAM1) Biomarker Activity (AID 2283065)
Details: primary human foreskin fibroblasts; actives raise or lower the signal
Calls of active or inactive are those of the source. The calls were made as follows: active = hit-call score of the fitted dose curve at least 0.9, where 1 is the maximum; inactive = score below 0.9.
Mark one answer only. Choices: T = active, F = inactive

Recorded results for 5 compounds are shown here.
>>> class("O=[N+]([O-])c1ccccc1")
"F"
>>> class("O=C(O)C(F)(F)OC(F)(F)C(F)(F)OC(F)(F)F")
"F"
>>> class("CC(C)(C)c1ccccc1OP(=O)(Oc1ccccc1)Oc1ccccc1")
"T"
>>> class("CC(C)(C)c1ccc(O)cc1")
"F"
>>> class("Nc1ccc(Cl)cc1")
"F"

Challenge: Identify the outcome logged in this assay for the compound shown: `Cc1ccc(O)cc1C`
Response given: F

Challenge: Proceed to `CCCCN(CCCC)SN(C)C(=O)Oc1cccc2c1OC(C)(C)C2`
Response given: T

Challenge: Proceed to `O=P(Oc1ccccc1)(Oc1ccccc1)Oc1ccccc1`
Response given: F

Challenge: Proceed to `CCOP(=S)(OCC)SCSCC`
Response given: F

Challenge: Proceed to `COP(=O)(O)OC`
Response given: F

Challenge: Proceed to `CCCN(CCC)c1c([N+](=O)[O-])cc(C(C)C)cc1[N+](=O)[O-]`
Response given: T

Challenge: Proceed to `Cc1c([N+](=O)[O-])cc2c(c1[N+](=O)[O-])C(C)(C)CC2(C)C`
Response given: F

Challenge: Proceed to `Cc1ccc([N+](=O)[O-])cc1C`
Response given: F

Challenge: Proceed to `Nc1ccc([N+](=O)[O-])cc1Cl`
Response given: F

Challenge: Proceed to `COP(N)(=S)OC`
Response given: F

Challenge: Proceed to `Cc1ccc2c(c1N)C(=O)c1ccccc1C2=O`
Response given: F

Challenge: Proceed to `CCOP(=S)(OCC)SCSc1ccc(Cl)cc1`
Response given: T

Challenge: Proceed to CCCCC(CC)COP(=O)(Oc1ccccc1)Oc1ccccc1 (centres undefined)
Response given: T

Challenge: Proceed to `CC(Cl)(Cl)C(=O)O`
Response given: F

Challenge: Proceed to O=P(OCC(Br)CBr)(OCC(Br)CBr)OCC(Br)CBr (centres undefined)
Response given: F

Challenge: Proceed to O=P1(N(CCCl)CCCl)NCCCO1 (centres undefined)
Response given: F

Challenge: Proceed to O=C(O)C1C(C(=O)O)C2(Cl)C(Cl)=C(Cl)C1(Cl)C2(Cl)Cl (centres undefined)
Response given: F

Challenge: Proceed to `CCN(CC)c1ccccc1`
Response given: F

Challenge: Proceed to CCC1(c2ccccc2)C(=O)N=C(O)NC1=O (centres undefined)
Response given: F

Challenge: Proceed to O=C(O)C(F)(OC(F)(F)C(F)(F)C(F)(F)F)C(F)(F)F (centres undefined)
Response given: F

* * *

Read-out: 3-Hydroxy-3-Methylglutaryl-CoA Synthase 2 (HMGCS2), HMGCS2 (gene 3158)
Assay: LTEA_HepaRG_HMGCS2: Life Technologies and Expression Analysis (LTEA) Assay for 3-Hydroxy-3-Methylglutaryl-CoA Synthase 2 (HMGCS2) using HepaRG (AID 2283504)
Details: mRNA level, 48 h; actives raise or lower the signal
Procedure: LTEA_HepaRG is a cell based, multiplexed-readout assay that uses HepaRG, a human liver cell line, with measurements taken at 48 hours after chemical dosing on a 96-well plate.LTEA_HepaRG_HMGCS2 is one of 102 assay component(s) measured in the LTEA HepaRG cell culture assay. It is a marker of Steatosis.Data from the assay component LTEA_HepaRG_HMGCS2 was analyzed into 1 endpoint. […]
Activity calls are given as the source filed them. Rule for the calls: active = hit-call score of the fitted dose curve at least 0.9, where 1 is the maximum; inactive = score below 0.9.
Mark one answer only. Choices: true = active, false = inactive

Recorded results for 5 compounds are shown here.
>>> class("c1cc2c3c(cccc3c1)CC2")
"false"
>>> class("ClC1=C(Cl)C2(Cl)C3C(Cl)C(Cl)CC3C1(Cl)C2(Cl)Cl (stereo not given)")
"true"
>>> class("O=C(O)C1C(C(=O)O)C2(Cl)C(Cl)=C(Cl)C1(Cl)C2(Cl)Cl (stereo not given)")
"false"
>>> class("O=[N+]([O-])c1ccccc1")
"false"
>>> class("CC(C)(C)OOC(C)(C)C")
"false"

Challenge: Identify the outcome logged in this assay for the compound shown: `ClC(Cl)c1ccccc1`
Response given: false

Challenge: Proceed to `O=[N+]([O-])c1ccc(Cl)c(Cl)c1`
Response given: false

Challenge: Proceed to `ClC(Cl)(Cl)c1ccccc1`
Response given: false

Challenge: Proceed to CCC1(c2ccccc2)C(=O)N=C(O)NC1=O (stereo not given)
Response given: false

Challenge: Proceed to `Cc1cccc(N)c1`
Response given: false

* * *

Read-out: Apoptosis regulator Bcl-2 (Homo sapiens) (UniProt P10415)
Sequence (P10415 whole entry, looked up): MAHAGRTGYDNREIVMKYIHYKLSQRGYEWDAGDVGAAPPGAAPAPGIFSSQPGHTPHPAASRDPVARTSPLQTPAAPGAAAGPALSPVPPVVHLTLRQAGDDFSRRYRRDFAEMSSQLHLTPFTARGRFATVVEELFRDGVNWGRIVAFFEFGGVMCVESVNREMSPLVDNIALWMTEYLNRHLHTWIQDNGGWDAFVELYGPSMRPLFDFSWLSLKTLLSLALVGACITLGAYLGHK
Assay: LTEA_HepaRG_BCL2: Life Technologies and Expression Analysis (LTEA) Assay for Bcl-2 gene using HepaRG (AID 2283475);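 further: BCL2 transcript by TaqMan qRT-PCR normalised to ACTB GAPDH and POLR2A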
Settings: mRNA level, 48 h; actives raise or lower the signal
Description: LTEA_HepaRG is a cell based, multiplexed-readout assay that uses HepaRG, a human liver cell line, with measurements taken at 48 hours after chemical dosing on a 96-well plate.LTEA_HepaRG_BCL2 is one of 102 assay component(s) measured in the LTEA HepaRG cell culture assay. It is a marker of Cell proliferation, survival, death.Data from the assay component LTEA_HepaRG_BCL2 was analyzed into 1 endpoint. […]
The source made the active and inactive calls. How the source made its calls: active means hit-call score of the fitted dose curve at least 0.9, where 1 is the maximum; inactive means score below 0.9.
Mark one answer only. Choices: 1 (yes) (active), 0 (no) (inactive)

>>> class("CSC(C)(C)C=NO")
"0 (no)"
>>> class("O=P(Oc1ccccc1)(Oc1ccccc1)Oc1ccccc1")
"1 (yes)"
>>> class("O=C(O)C1C(C(=O)O)C2(Cl)C(Cl)=C(Cl)C1(Cl)C2(Cl)Cl (centres undefined)")
"0 (no)"
>>> class("CCOC(=O)c1ccccc1C(=O)OCC")
"0 (no)"
>>> class("CCCCCCCc1ccc(O)cc1")
"0 (no)"
>>> class("Cc1ccc([N+](=O)[O-])cc1C")
"0 (no)"
>>> class("CCCCN(CCCC)SN(C)C(=O)Oc1cccc2c1OC(C)(C)C2")
"0 (no)"
>>> class("Cc1ccc(O)cc1C")
"0 (no)"
>>> class("CCN(CC)c1ccccc1")
"0 (no)"
>>> class("Cc1ccc(N)cc1N")
"0 (no)"

Challenge: Identify the outcome logged in this assay for the compound shown: `CC(Cl)(Cl)C(=O)O`
Response given: 0 (no)

Challenge: Proceed to `Nc1ccc(Cl)cc1`
Response given: 0 (no)

Challenge: Proceed to CC(Cc1ccc(OCC(=O)O)cc1)NCC(O)c1csc(C(F)(F)F)n1 (centres undefined)
Response given: 1 (yes)

Challenge: Proceed to `CCOc1ccc(C(C)(C)COCc2cccc(Oc3ccccc3)c2)cc1`
Response given: 0 (no)

* * *

Read-out: Transforming growth factor beta 1 (TGFb1), TGFB1 (gene 7040)
Assay: BSK_BE3C_TGFb1: BioMAP Diversity Plus: BE3C Assay for Transforming growth factor beta 1 (TGFb1) Biomarker Activity (AID 2283036)
Conditions: primary human bronchial epithelial cells; actives raise or lower the signal
Activity calls are given as the source filed them. Rule for the calls: active = hit-call score of the fitted dose curve at least 0.9, where 1 is the maximum; inactive = score below 0.9.
Mark one answer only. Choices: T (active), F (inactive)

Recorded results for 5 molecules are shown here.
>>> class("O=[N+]([O-])c1ccccc1")
"F"
>>> class("c1cc2c3c(cccc3c1)CC2")
"F"
>>> class("C=CC(=O)OCC(CC)(COC(=O)C=C)COC(=O)C=C")
"T"
>>> class("Nc1ccc([N+](=O)[O-])cc1Cl")
"F"
>>> class("CN(C)C(=O)Cl")
"F"

Challenge: Identify the outcome logged in this assay for the molecule shown: `Cc1ccc(O)cc1C`
Response given: F

Challenge: Proceed to `c1ccc2c(c1)Nc1ccccc1S2`
Response given: F

Challenge: Proceed to `CCCCN(CCCC)N=O`
Response given: F

Challenge: Proceed to O=S1(=O)OCC2C(CO1)C1(Cl)C(Cl)=C(Cl)C2(Cl)C1(Cl)Cl (stereo unspecified)
Response given: F

Challenge: Proceed to O=P(OCC(Br)CBr)(OCC(Br)CBr)OCC(Br)CBr (stereo unspecified)
Response given: F

Challenge: Proceed to `Cc1cccc(N)c1`
Response given: F

Challenge: Proceed to `O=P(Oc1ccccc1)(Oc1ccccc1)Oc1ccccc1`
Response given: F

Challenge: Proceed to `Cc1c([N+](=O)[O-])cc2c(c1[N+](=O)[O-])C(C)(C)CC2(C)C`
Response given: T

Challenge: Proceed to `CCCCOCCOP(=O)(OCCOCCCC)OCCOCCCC`
Response given: F

Challenge: Proceed to CCOP(=S)(NC(C)C)Oc1ccccc1C(=O)OC(C)C (stereo unspecified)
Response given: F
